All values here come from PubChem BioAssay (NCI).

Each entry below lists one item and its recorded TGI value.
tested on: U251 CNS; experiment: NCI tumour cell line growth inhibition, 48 h

[
  {
    "COMPOUND": "COc1cc(-c2cncn2-c2ccc(-c3nc4ccc(F)cc4s3)cc2)ccc1F",
    "TGI": "> 100 µM"
  },
  {
    "COMPOUND": "O=c1ccc(N=Nc2ccccc2)ccc1Cl",
    "TGI": "9.29 µM"
  },
  {
    "COMPOUND": "CCCCSSC(=S)N(CC)CC",
    "TGI": "> 100 µM"
  },
  {
    "COMPOUND": "CCCn1c2c(c3ccccc3c1=O)C(=O)c1cc3c(cc1-2)OCO3",
    "TGI": "> 100 µM"
  },
  {
    "COMPOUND": "CC[N+](C)(CC)CCNC(=O)C(O)(c1ccccc1)c1ccccc1",
    "TGI": "> 100 µM"
  },
  {
    "COMPOUND": "CCOC(=O)c1c2c(n(Cc3ccc(Cl)cc3Cl)c1C)-c1nc(Cc3ccccc3)[nH]c1C(=O)C2=O",
    "TGI": "4.62 µM"
  },
  {
    "COMPOUND": "C=C1C[C@]23CC[C@@H]4C(CO)(CO)CC(=O)C[C@]4(C)[C@@H]2CC[C@H]1C3",
    "TGI": "> 100 µM"
  },
  {
    "COMPOUND": "Cc1ccc(NC(=O)CC/C(CC(=O)C(C)(C)C)=N/Nc2nnc(C)n2N)cc1C",
    "TGI": "> 100 µM"
  },
  {
    "COMPOUND": "CC(=O)c1c(-c2ccco2)c(C#N)c(=S)n(C2OC(CO)C(O)C(O)C2O)c1-c1ccccc1 (stereo unspecified)",
    "TGI": "> 100 µM"
  },
  {
    "COMPOUND": "COc1ccc(NS(=O)c2ccc(Cl)cc2)cc1 (stereo unspecified)",
    "TGI": "54.2 µM"
  },
  {
    "COMPOUND": "O=C1C=CC(=O)N1n1c(Cc2ccccc2)n[nH]c1=O",
    "TGI": "> 100 µM"
  }
]

====

tested on: LOX IMVI melanoma; test: NCI tumour cell line growth inhibition, 48 h
Where a SMILES comes first, the peptide text is derived from it. [ ]: non-standard residue; d: D form. Ac5c = NC1(C(=O)O)CCCC1
Recorded TGI, one value per entry.

[
  {
    "COMPOUND": "Cc1cccc(NC(=S)Nc2ccc(Cl)cc2)n1",
    "TGI": "> 100 µM"
  },
  {
    "COMPOUND": "O=[N+]([O-])c1cc([N+](=O)[O-])c(N2CCCC2)cc1NN=C(c1ccc(O)cc1)c1ccc(O)cc1",
    "TGI": "14.6 µM"
  },
  {
    "COMPOUND": "Cn1cc(C2=C(c3cn(C)c4cc(C(=O)O)ccc34)C(=O)NC2=O)c2ccccc21",
    "TGI": "> 25 µM"
  },
  {
    "COMPOUND": "CCCCCCCCCCCCCCCCNC(=O)OC(C)C",
    "TGI": "2.97 µM"
  },
  {
    "COMPOUND": "CCC(CC)COC(=O)[C@H](C)N[P@](=O)(OC[C@H]1O[C@@](C#N)(c2ccc3c(N)ncnn23)[C@H](O)[C@@H]1O)Oc1ccccc1",
    "TGI": "22.1 µM"
  },
  {
    "COMPOUND": "CN(C(=O)c1cccs1)C(=S)N1CCN(c2ccccn2)CC1",
    "TGI": "> 100 µM"
  },
  {
    "COMPOUND": "O=C1Nc2ccccc2S/C1=C\\c1ccc(C(F)(F)F)cc1",
    "TGI": "> 100 µM"
  },
  {
    "COMPOUND": "CC1=C(C(=O)Nc2ccc(Cl)c(Cl)c2)C(c2ccccc2Cl)NC(=S)N1 (stereo not drawn)",
    "TGI": "> 50 µM"
  },
  {
    "COMPOUND": "C=CC(O)C#Cc1cnc(OC)nc1OC (stereo not drawn)",
    "TGI": "> 100 µM"
  },
  {
    "COMPOUND": "CCC(C)NC1=C(NC(C)=O)C(=O)c2ccccc2C1=O (stereo not drawn)",
    "TGI": "40 µM"
  },
  {
    "COMPOUND": "N#Cc1c(-c2ccccc2)n([O-])c2ccccc2[n+]1=O",
    "TGI": "35.1 µM"
  },
  {
    "COMPOUND": "NCC(=O)NC1(C(=O)O)CCCC1 (H-Gly-[Ac5c]-OH)",
    "TGI": "> 100 µM"
  },
  {
    "COMPOUND": "CC(SC(=S)Nc1cccc(F)c1)C(=O)O (stereo not drawn)",
    "TGI": "32.4 µM"
  }
]
